# tested-on: T1, human CCR8 (Homo sapiens, UniProt P51685)
# T1 construct: expressed in transfected cells; host or cells: 293 cells
# experimental-protocol: Neutralizing activity: inhibition of Ca2+ influx by 200 nM hCCL1 in human CCR8 expressing 293 cells (FLIPR), Test Example 6
# Type: cell-based
# protocol-conditions: Table 9; WT IC50/mutant IC50; humanized 10A11 heavy chain CDR mutants, IGKV4-1/IGHV3-73

# molecule, IC50 ratio
records = [
    ("h10A11 (IGKV4-1/IGHV3-73 L34I): humanized 10A11 heavy chain CDR point mutant (antibody, V domains shown) VL: DIVMTQSPDSLAVSLGERATINCRSSKSLLHSNGNTYLYWYQQKPGQPPKLLIYRMSNLASGVPDRFSGSGSGTDFTLTISSLQAEDVAVYYCMQHLEYPLTFGQGTKLEIKRT VH: EVQLVESGGGLVQPGGSLKLSCAASGFAFNTYAIYWVRQASGKGLEWVGRIRSKSNNYATYYADSVKDRFTISRDDSKNTAYLQMNSLKTEDTAVYYCTRARFYYSDYGYAMDYWGQGTLVTVSS", 0.43),
]
